- Test system: SK-MEL-28 melanoma
- Experiment summary: NCI tumour cell line growth inhibition, 48 h
Where a SMILES comes first, the peptide text is derived from it. The star is where a group is joined. OSu = O=C1CCC(=O)N1O*
Items are presented alongside their recorded TGI.

# example entries with known answers
NCCCCC(NC(=O)C(N)Cc1ccc(O)cc1)C(=O)NC(CCCCN)C(=O)NC(CCCCN)C(=O)ON1C(=O)CCC1=O (centres undefined) (H-YKKK-OSu; configuration not given here)
> 100 µM
Cc1cc2c(cc1C)[n+](=O)c(C(=O)c1ccccc1)c(C(F)F)n2[O-]
> 100 µM
Cc1ccc(S[C@@H](C)[C@@](O)(CF)CN(Cc2ccccc2)C(=O)C(F)(F)F)cc1
> 100 µM

--- query ---
Note to self: TGI recorded for `COc1cc(/C=C2\CN(S(=O)(=O)c3ccc(C)cc3)C/C(=C\c3cc(CN4CCCC4)c(O)c(OC)c3)C2=O)cc(CN2CCCC2)c1O` was 3.51 µM
